- TARGET DESC: DNMT1 (amino acids 621–1616) (Homo sapiens, UniProt P26358)
- Construct: RFTS-lacking DNMT1, amino acids 621–1616; made in house
- Sequence (P26358 621-1616): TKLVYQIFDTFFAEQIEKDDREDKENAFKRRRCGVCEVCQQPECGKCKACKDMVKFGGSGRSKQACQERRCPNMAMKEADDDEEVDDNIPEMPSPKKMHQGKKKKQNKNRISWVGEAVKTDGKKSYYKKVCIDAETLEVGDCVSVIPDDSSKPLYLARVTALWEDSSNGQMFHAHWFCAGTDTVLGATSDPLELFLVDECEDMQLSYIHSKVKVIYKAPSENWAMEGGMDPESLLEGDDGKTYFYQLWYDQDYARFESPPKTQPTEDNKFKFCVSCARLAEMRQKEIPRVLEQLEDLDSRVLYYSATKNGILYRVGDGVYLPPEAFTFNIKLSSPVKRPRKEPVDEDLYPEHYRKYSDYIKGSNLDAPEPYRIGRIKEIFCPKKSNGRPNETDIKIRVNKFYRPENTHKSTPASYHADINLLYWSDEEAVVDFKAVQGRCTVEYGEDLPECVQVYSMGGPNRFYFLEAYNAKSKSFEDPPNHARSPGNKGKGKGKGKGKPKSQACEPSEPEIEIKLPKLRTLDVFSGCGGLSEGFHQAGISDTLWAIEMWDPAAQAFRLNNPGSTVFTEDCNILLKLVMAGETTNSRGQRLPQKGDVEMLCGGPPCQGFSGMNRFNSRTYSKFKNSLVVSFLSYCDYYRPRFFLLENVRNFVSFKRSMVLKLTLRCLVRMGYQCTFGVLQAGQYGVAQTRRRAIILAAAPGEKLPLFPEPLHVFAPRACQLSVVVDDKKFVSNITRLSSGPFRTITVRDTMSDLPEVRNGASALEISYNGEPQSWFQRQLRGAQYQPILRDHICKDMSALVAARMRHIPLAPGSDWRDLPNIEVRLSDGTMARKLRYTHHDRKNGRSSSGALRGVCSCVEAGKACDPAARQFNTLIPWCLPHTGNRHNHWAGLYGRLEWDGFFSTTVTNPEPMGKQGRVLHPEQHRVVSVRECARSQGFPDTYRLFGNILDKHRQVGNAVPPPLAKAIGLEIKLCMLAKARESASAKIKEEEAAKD
- METHOD NOTES: Detergent test, endonuclease-coupled DNA methylation assay
- Format: biochemical
- TEST PARAMETERS: 5 µM compound, presence of 0.01% Triton X-100; read-out: Percent activity, 0.01% Triton X-100 +
The reader will find reported remaining activity at 5 µM values listed item by item below.
READOUT TYPE: remaining activity at 5 µM (%)

COMPOUND	READOUT TYPE	UNIT SYMBOL	READOUT NUMBER
O=C(O)C(S)C(S)C(=O)O (stereo not drawn)	remaining activity at 5 µM	%	8
O=C(O)c1cc(O)c2c(c1)[C@@H]([C@@H]1c3cc(C(=O)O)cc(O)c3C(=O)c3c(O[C@H]4O[C@H](CO)[C@@H](O)[C@H](O)[C@H]4O)cccc31)c1cccc(O[C@H]3O[C@H](CO)[C@@H](O)[C@H](O)[C@H]3O)c1C2=O	remaining activity at 5 µM	%	0
CSc1nc2cc(Cl)c(Oc3cccc(Cl)c3Cl)cc2[nH]1	remaining activity at 5 µM	%	46

* * *

- TARGET DESC: DNMT1 (amino acids 621–1616) (Homo sapiens)
- Construct: RFTS-lacking DNMT1, amino acids 621–1616; made in house
- METHOD NOTES: Validation of HTS hits, endonuclease-coupled DNA methylation assay
- Format: biochemical
- TEST PARAMETERS: relative fluorescence after 25-minute incubation at 37 °C; 10.9 µM test compound; three replicates
Tick 1 if RFU is 800 RFU or greater. Tick -1 if RFU is less than 800 RFU.

MOLECULE	TARGET DESC	CLASSIFICATION
O=C(O)c1cc(O)c2c(c1)[C@@H]([C@H]1c3cc(C(=O)O)cc(O)c3C(=O)c3c(O[C@H]4O[C@H](CO)[C@@H](O)[C@H](O)[C@H]4O)cccc31)c1cccc(O[C@H]3O[C@H](CO)[C@@H](O)[C@H](O)[C@H]3O)c1C2=O	DNMT1 (amino acids 621–1616) (Homo sapiens)	-1
O=C(O)c1cc(O)c2c(c1)[C@@H]([C@@H]1c3cc(C(=O)O)cc(O)c3C(=O)c3c(O[C@H]4O[C@H](CO)[C@@H](O)[C@H](O)[C@H]4O)cccc31)c1cccc(O[C@H]3O[C@H](CO)[C@@H](O)[C@H](O)[C@H]3O)c1C2=O	DNMT1 (amino acids 621–1616) (Homo sapiens)	-1
CC(=O)NCCc1ccc(O)c(-c2c(O)c(O)c3c(c2O)C(=O)c2c(cc(O)c(C(=O)O)c2C(=O)O)C3=O)c1	DNMT1 (amino acids 621–1616) (Homo sapiens)	-1
CSc1nc2cc(Cl)c(Oc3cccc(Cl)c3Cl)cc2[nH]1	DNMT1 (amino acids 621–1616) (Homo sapiens)	1
O=C1c2ccccc2C(=O)c2c1ccc(O)c2O	DNMT1 (amino acids 621–1616) (Homo sapiens)	1
O=c1c(O)c(-c2ccc(O)c(O)c2)oc2c(O)c(O)cc(O)c12	DNMT1 (amino acids 621–1616) (Homo sapiens)	1
